test system: CCRF-CEM; assay: Antitumor activity against human CCRF-CEM cells assessed as cell growth inhibition at 10 uM incubated for 48 hrs by sulforhodamine B assay; type: functional; details: read-out: GI
Observable: inhibition of growth at 10 µM (%)
Report only the number, with the unit % understood.

Consider the reported inhibition of growth at 10 µM for these compounds:
N#Cc1c(-c2ccc(F)cc2)nc2c(/N=N/c3ccc(S(N)(=O)=O)cc3)c(N)nn2c1N | 51
Cc1ccc(-c2cn3nc(N)c(/N=N/c4ccc(S(N)(=O)=O)cc4)c3[nH]2)cc1 | 54
N#Cc1c(-c2ccc(Cl)cc2)nc2c(/N=N/c3ccc(S(N)(=O)=O)cc3)c(N)nn2c1N | 65

API: the following record is the query input.
Prompt line: Indicate the recorded inhibition of growth at 10 µM value for this compound: Cc1ccc(-c2nc3c(/N=N/c4ccc(S(N)(=O)=O)cc4)c(N)nn3c(N)c2C#N)cc1
Response line: 88
